biological target: PIM1 (Homo sapiens (Human), UniProt P11309); assay: Kinase assay, PIM1 IC50; type: biochemical
Sequence (P11309 whole entry): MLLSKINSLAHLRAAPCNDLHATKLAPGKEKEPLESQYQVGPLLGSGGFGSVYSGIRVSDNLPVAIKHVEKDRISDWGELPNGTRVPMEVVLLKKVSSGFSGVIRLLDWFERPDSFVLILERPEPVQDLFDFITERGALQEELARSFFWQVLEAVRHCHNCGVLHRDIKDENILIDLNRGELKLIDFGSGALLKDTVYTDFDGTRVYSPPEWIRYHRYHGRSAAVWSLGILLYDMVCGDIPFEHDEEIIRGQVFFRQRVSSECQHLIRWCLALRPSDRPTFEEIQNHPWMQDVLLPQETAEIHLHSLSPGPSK
MEASUREMENT_NAME: PIM1 IC50 (nm)

compound_structure=O=C(c1ccc(O)c(O)c1)c1nc2cc(O)c(O)cc2s1 target_system="PIM1 (Homo sapiens (Human), UniProt P11309)" result="Micromolar inhibition"
compound_structure=O=C(c1ccc(O)c(O)c1)c1nc2c(O)ccc(O)c2s1 target_system="PIM1 (Homo sapiens (Human), UniProt P11309)" result="Micromolar inhibition"
compound_structure=Oc1ccc(-c2nc3cc4c(cc3s2)OCO4)cc1O target_system="PIM1 (Homo sapiens (Human), UniProt P11309)" result="Micromolar inhibition"

====

molecular target: PIM1 (Homo sapiens (Human), UniProt P11309)
pIC50: −log10 of the molar value.
MEASUREMENT_NAME: pIC50

compound_structure=COc1cc(O)c(C(=O)c2nc3cc(O)ccc3s2)cc1O measured_number=6.26

====

pIC50: −log10 of the molar value.
In what follows, each item is paired with its pIC50 for UniProt Q13627.
MEASUREMENT_NAME: pIC50

compound_structure=Oc1ccc(-c2nc3ccc4[nH]ncc4c3s2)cc1O measurement_name=pIC50 measured_number=6.30
compound_structure=S=C1Cc2ccc(-c3nc4cc5c(cc4s3)OCO5)cc2N1 measurement_name=pIC50 measured_number=6.25
compound_structure=COc1ccc(O)c2nc(C(=O)c3ccc(O)c(O)c3)sc12 measurement_name=pIC50 measured_number=6.25
compound_structure=O=C(c1ccc(O)c(O)c1)c1nc2cc(O)c(O)cc2s1 measurement_name=pIC50 measured_number=7.28
